Source: paper PMC11310081

Tested on: HEK293T cells
Conditions: 24 h
Peptide text beside a SMILES is read from it.
Quick list: CC50 per entry.

{"Compound": "CC[C@H](C)[C@H](NC(=O)[C@H](CCCCN)NC(=O)[C@H](CO)NC(=O)[C@H](CC(N)=O)NC(=O)[C@H](Cc1ccccc1)NC(=O)[C@H](Cc1c[nH]cn1)NC(=O)[C@H](Cc1ccccc1)NC(=O)[C@@H](N)Cc1c[nH]c2ccccc12)C(=O)N[C@@H](CC(C)C)C(=O)N[C@@H](CC(C)C)C(=O)N[C@@H](CC(C)C)C(=O)N[C@H](C(=O)NCC(=O)N[C@@H](CC(C)C)C(=O)O)[C@@H](C)O [Mylodonin-1] (H-WFHFNSKILLLTGL-OH; N-terminus and C-terminus assumed)", "CC50": "> 128 µM"}
{"Compound": "CC[C@H](C)[C@H](NC(=O)[C@H](Cc1c[nH]cn1)NC(=O)[C@@H](N)CC(C)C)C(=O)NCC(=O)N[C@@H](CC(C)C)C(=O)N[C@H](C(=O)N[C@@H](CCCCN)C(=O)N[C@H](C(=O)N[C@@H](Cc1ccc(O)cc1)C(=O)N[C@@H](CC(C)C)C(=O)NCC(=O)N[C@@H](CO)C(=O)N[C@@H](Cc1ccccc1)C(=O)N[C@@H](C)C(=O)N[C@@H](CC(C)C)C(=O)O)[C@@H](C)O)[C@@H](C)CC [Eudyptin-1] (H-LHIGLIKTYLGSFAL-OH; N-terminus and C-terminus assumed)", "CC50": "> 128 µM"}

// moving on: another record for CC50
stdin: Could you tell me which CC50 is on file for CC[C@H](C)[C@H](NC(=O)[C@@H](N)[C@@H](C)O)C(=O)N[C@@H](CCCCN)C(=O)N[C@@H](CC(C)C)C(=O)N[C@@H](Cc1ccccc1)C(=O)N[C@@H](CC(C)C)C(=O)N[C@@H](CO)C(=O)N[C@@H](Cc1ccccc1)C(=O)N[C@@H](CCCCN)C(=O)N[C@@H](CC(C)C)C(=O)O [Xenothrixin-1] (H-TIKLFLSFKL-OH; N-terminus and C-terminus assumed) ?
stdout: 70.77 µM
